# assay protocol: Inhibition of FAM-Bim peptide binding to human Hsp70 NBD (1 to 383) measured after 30 mins by fluorescence polarization assay
Reported pIC50 values follow for various molecules
The value called pIC50 is obtained by taking minus log10 of the concentration in mol/L.

N#CC1=C(C#N)c2ccc(NCCO)c3cccc(c23)C1=O
4.82
N#CC1=C(NCc2ccccc2)c2ccc(SC3CCCCC3)c3cccc(c23)C1=O
4.98
N#CC1=C(C#N)c2ccc(Sc3ccc(Br)cc3)c3cccc(c23)C1=O
5.60

What value of pIC50 has been recorded for this entry: N#CC1=C(NCCO)c2ccc(SC3CCCCC3)c3cccc(c23)C1=O
6.09

// pIC50 lookup, key: N#CC1=C(NCCC(N)=O)c2ccc(SC3CCCCC3)c3cccc(c23)C1=O
6.00

I am curious: what pIC50 value has been reported for N#CC1=C(C#N)c2ccc(SC3CCCCC3)c3cccc(c23)C1=O ?
5.77

Please give the measured pIC50 for this molecule: N#CC1=C(NCCN2CCOCC2)c2ccc(SC3CCCCC3)c3cccc(c23)C1=O
6.35

Please report the recorded pIC50 for N#CC1=C(C#N)c2ccc(Sc3ccccc3)c3cccc(c23)C1=O .
5.11

Look up pIC50: N#CC1=C(C#N)c2ccc(NCc3ccccc3)c3cccc(c23)C1=O
4.73

Query: pIC50; subject: CC(C)c1ccc(Sc2ccc3c4c(cccc24)C(=O)C(C#N)=C3C#N)cc1
5.36

Quick one: pIC50 of CCCCNC1=C(C#N)C(=O)c2cccc3c(SC4CCCCC4)ccc1c23 ?
4.88

Report pIC50 for N#CC1=C(C#N)c2ccc(SC3CCCC3)c3cccc(c23)C1=O please.
5.49

Which measured pIC50 value corresponds to N#CC1=C(NCC2CCCCC2)c2ccc(SC3CCCCC3)c3cccc(c23)C1=O ?
5.08

Fill in: pIC50 of COc1ccc(Sc2ccc3c4c(cccc24)C(=O)C(C#N)=C3C#N)cc1 is ___
5.35
